Origin of measurements: PubChem BioAssay

Assay: modulators of CIT2-GFP expression in yeast, confirmation, S. cerevisiae, GFP fusion, cherry picks, mother/daughter gates (AID 2274)
Settings: S. cerevisiae CIT2-GFP strain, flow cytometry, 3 h; at 10 µM
Active and inactive are the calls of the source.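 Rule for the calls: active = GFP response above 150% of the DMSO level; inconclusive = fewer than 70 events counted for a yeast strain; inactive = the rest.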
Assign a class; possible classes are active, inactive

# example entries with known answers
Cc1ccc(S(=O)(=O)N(Cc2ccc(F)cc2)Cc2ccco2)cc1
inactive
CCN(CC(O)Cn1c2ccccc2c2ccccc21)S(=O)(=O)c1ccc(F)cc1 (centres undefined)
inactive
Cc1ccc(NC(=O)COc2ccc(Br)cc2C)cc1
inactive
COc1ccc(/C=C/C(=O)c2c(O)cc(C)oc2=O)c(OC)c1
inactive
c1ccc(CSc2ccc(-c3ccccn3)nn2)cc1
inactive

Task: Outcome? COC(=O)Cn1cc(/C=C/c2cc[n+](C)cc2)c2ccccc21
Result: inactive

Task: Consider next the molecule C/C(=N\NC(=O)c1nonc1N)c1cccs1 in the same way.
Result: inactive

Task: Then what about the molecule O=C(OCC(=O)N1CCN(C(=O)c2ccco2)CC1)c1cc(-c2ccccc2)nc2ccccc12 ?
Result: inactive

====

Molecular target: Integrin beta-1 (Homo sapiens) + Integrin alpha-4 (Homo sapiens) (UniProt P13612+P05556)
Sequence (P05556 whole entry, looked up): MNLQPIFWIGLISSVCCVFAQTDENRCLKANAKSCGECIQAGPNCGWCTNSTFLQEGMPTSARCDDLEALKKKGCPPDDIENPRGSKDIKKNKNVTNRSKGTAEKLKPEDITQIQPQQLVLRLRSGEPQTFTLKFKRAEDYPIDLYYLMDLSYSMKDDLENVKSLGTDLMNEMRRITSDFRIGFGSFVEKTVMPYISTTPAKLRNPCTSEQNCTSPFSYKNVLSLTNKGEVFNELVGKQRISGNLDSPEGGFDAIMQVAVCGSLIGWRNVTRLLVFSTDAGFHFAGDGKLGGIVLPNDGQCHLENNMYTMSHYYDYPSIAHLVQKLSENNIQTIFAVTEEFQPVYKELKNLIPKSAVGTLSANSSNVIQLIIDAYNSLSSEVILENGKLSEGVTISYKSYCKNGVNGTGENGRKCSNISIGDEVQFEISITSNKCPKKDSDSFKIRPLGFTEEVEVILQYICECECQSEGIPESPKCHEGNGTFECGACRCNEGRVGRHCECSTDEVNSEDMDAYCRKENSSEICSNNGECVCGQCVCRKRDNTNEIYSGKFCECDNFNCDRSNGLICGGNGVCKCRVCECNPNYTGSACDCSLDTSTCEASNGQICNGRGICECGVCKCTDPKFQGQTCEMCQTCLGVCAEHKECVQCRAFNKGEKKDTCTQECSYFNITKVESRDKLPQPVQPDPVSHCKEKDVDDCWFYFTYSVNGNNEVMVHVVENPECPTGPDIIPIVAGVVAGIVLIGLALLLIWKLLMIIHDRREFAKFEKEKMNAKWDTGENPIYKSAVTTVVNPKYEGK
Sequence (P13612 whole entry, looked up): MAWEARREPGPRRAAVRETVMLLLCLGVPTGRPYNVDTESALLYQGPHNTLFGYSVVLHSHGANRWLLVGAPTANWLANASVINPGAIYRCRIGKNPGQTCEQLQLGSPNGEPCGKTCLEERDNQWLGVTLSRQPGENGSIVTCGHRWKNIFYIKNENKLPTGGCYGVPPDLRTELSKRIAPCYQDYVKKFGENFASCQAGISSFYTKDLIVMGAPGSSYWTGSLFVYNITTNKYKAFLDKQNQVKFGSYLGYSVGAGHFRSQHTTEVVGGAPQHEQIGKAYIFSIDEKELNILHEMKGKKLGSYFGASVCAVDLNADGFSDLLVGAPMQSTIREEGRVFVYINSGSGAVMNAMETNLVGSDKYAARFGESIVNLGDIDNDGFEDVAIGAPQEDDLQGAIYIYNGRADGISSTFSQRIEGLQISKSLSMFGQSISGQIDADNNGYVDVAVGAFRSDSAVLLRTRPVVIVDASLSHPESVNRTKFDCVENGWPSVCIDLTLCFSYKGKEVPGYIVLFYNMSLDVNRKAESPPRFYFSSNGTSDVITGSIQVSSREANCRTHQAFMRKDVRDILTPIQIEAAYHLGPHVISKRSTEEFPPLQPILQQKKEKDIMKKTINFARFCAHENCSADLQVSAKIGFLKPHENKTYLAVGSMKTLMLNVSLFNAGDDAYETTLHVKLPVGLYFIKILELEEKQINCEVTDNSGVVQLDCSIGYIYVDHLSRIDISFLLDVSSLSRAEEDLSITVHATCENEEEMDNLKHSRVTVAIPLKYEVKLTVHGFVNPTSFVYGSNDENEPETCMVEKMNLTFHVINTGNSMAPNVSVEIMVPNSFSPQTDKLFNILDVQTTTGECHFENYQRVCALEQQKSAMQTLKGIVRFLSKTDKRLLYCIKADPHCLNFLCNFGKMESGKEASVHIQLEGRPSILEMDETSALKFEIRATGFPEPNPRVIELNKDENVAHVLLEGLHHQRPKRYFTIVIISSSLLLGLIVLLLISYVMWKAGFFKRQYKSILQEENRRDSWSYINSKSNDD
Assay: inhibition of HUTS-21 binding to VLA-4, pilot screen, VLA-4 allosteric modulator project, U937 cells, HUTS-21 mAb, flow cytometry, validation set (AID 2674);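 note: antibody binding induced by the VLA-4 ligand LDV present at three times its Kd; 0% = LDV ligand with antibody and no compound and 100% = antibody without LDV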
Conditions: HUTS-21 LIBS mAb binding, at 6.7 µM, active compounds read high, binding induced by LDV ligand
The source made the active and inactive calls.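 The calls were made as follows: active = inhibition above 50%, about 3 SD of the validation set; inactive = the rest.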
Would you mind telling me the reported inhibition of each entry?

Cc1csc(-c2coc3cc(O)cc(C)c3c2=O)n1
2.3% (inactive)
O=c1c2ccccc2nnn1Cc1cccc2ccccc12
-13.9% (inactive)
C#CCN(C)Cc1ccccc1
-2.82% (inactive)
O=C(O)c1ccccc1O
15.6% (inactive)
COc1ccc(C(=O)Nc2ccc(OC)c([N+](=O)[O-])c2)cc1Br
4.27% (inactive)
O=C(Oc1cccccc1=O)c1ccccc1
21% (inactive)

Hey, quick one: what's inhibition for each of these?
1. CC(C)[N+]1(C)[C@@H]2CC[C@H]1CC(OC(=O)C(CO)c1ccccc1)C2 (stereo partly specified)
2. N/C(=N/OS(=O)(=O)c1ccc([N+](=O)[O-])cc1)c1ccncc1
3. Oc1[nH]c2ccccc2c1N=Nc1ccccc1
4. CCN(CC)CCNC(=O)c1cc(S(C)(=O)=O)ccc1OC
5. Cn1c2[n+](c3ccc(Cl)cc3c1=O)Cc1ccccc1-2

Result:
["27.7% (inactive)", "1.59% (inactive)", "9.09% (inactive)", "-1.79% (inactive)", "-13% (inactive)"]

Please go through the list and note inhibition for each molecule.
1. Nc1ncnc2c1ncn2C1OC(CO)C(O)C1O (stereo unspecified)
2. COc1ccccc1-c1c(C(F)(F)F)oc2cc(OC(=O)c3ccc([N+](=O)[O-])cc3)ccc2c1=O
3. COc1ccc(C(=O)/C=C/c2cc(C(=O)O)cc3c2OCOC3)c(O)c1
4. O[C@@H](CNC[C@H](O)c1ccccc1)c1ccccc1
5. CCCN1C[C@H](CSC)C[C@@H]2c3cccc4[nH]cc(c34)C[C@H]21

Result:
1. -6.77% (inactive)
2. -1.97% (inactive)
3. -3.97% (inactive)
4. -27.7% (inactive)
5. -8.78% (inactive)
